System: 92.1 uveal melanoma cell line (heterozygous GNAQ Q209L)
assay.text: Cell proliferation assay (resazurin cell viability), 92.1 cell line
Format: cell-based
test.conditions: 92.1 (GNAQ Q209L); 96 hours of treatment; read-out: GI50 by cell line, 92.1
Starred links: 1 amine or outer side, 2 acyl side, 3 side chain; linkers in the order of their positions; H or OH if unused. Positions of bridges follow the written chain, without caps; N, C: chain ends. Non-standard residues stand in square brackets, D forms with d. Residues, ends and D or L forms follow the SMILES beside them. *: point of attachment. Leu(3R-O(AcLeu(3R-OH))) = CC(=O)N[C@H](C(=O)O[C@H](C(C)C)[C@H](N)C(=O)O)[C@H](O)C(C)C; Leu(3R-OH,Nα-propionyl) = CCC(=O)N[C@H](C(=O)*)[C@H](O)C(C)C; X1 = CC(C)[C@@H](O[*:3])[C@H](N[*:1])C(=O)[*:2]; X5 = CSC[C@@H](O[*:3])[C@H](N[*:1])C(=O)[*:2]; X4 = CCC(=O)N[C@H](C(=O)*)[C@H](O)CSC; NMeT = CN[C@H](C(=O)O)[C@@H](C)O; dPhLac = O=C(O)[C@H](O)Cc1ccccc1; NMeA = CN[C@@H](C)C(=O)O; dNMeA = CN[C@H](C)C(=O)O; NMeDha = C=C(NC)C(=O)O; Propionyl = CCC(=O)*
measured.quantity: GI50 (nM)
Give bare numbers, in nM.

Batch lookup, GI50 per entry.
1. C=C1C(=O)N[C@@H](C)C(=O)N(C)[C@@H](C)C(=O)N[C@@H]([C@H](OC(=O)[C@@H](NC(=O)CC)[C@H](O)C(C)C)C(C)C)C(=O)N(C)[C@@H]([C@@H](C)OC)C(=O)O[C@H](C)[C@H](NC(C)=O)C(=O)O[C@H](Cc2ccccc2)C(=O)N1C [Compound 14] (Ac-T[dPhLac][NMeDha]A[NMeA][X1](Leu(3R-OH,Nα-propionyl))[NMeT](Me); ester 1-C)
2. C=C1C(=O)N[C@@H](C)C(=O)N(C)[C@@H](C)C(=O)N[C@@H]([C@H](OC(=O)[C@@H](NC(=O)CC)[C@H](O)C(C)C)C(C)C)C(=O)N(C)[C@@H]([C@@H](C)OC)C(=O)O[C@H](C(C)C)[C@H](NC(C)=O)C(=O)O[C@H](Cc2ccccc2)C(=O)N1C [Compound (A1), FR900359] (Ac-[X1][dPhLac][NMeDha]A[NMeA][X1](Leu(3R-OH,Nα-propionyl))[NMeT](Me); ester 1-C)

5.2
0.6

Batch lookup, GI50 per entry.
1. C=C1C(=O)N[C@@H](C)C(=O)N(C)[C@@H](C)C(=O)N[C@@H]([C@H](OC(=O)[C@@H](NC(=O)CC)[C@H](O)CSC)C(C)C)C(=O)N(C)[C@@H]([C@@H](C)OC)C(=O)O[C@H](C(C)C)[C@H](NC(C)=O)C(=O)O[C@H](Cc2ccccc2)C(=O)N1C [Compound 4] (Ac-[X1][dPhLac][NMeDha]A[NMeA][X1](X4)[NMeT](Me); ester 1-C)
2. CCC(=O)N[C@H](C(=O)O[C@H](C(C)C)[C@@H]1NC(=O)[C@H](C)N(C)C(=O)[C@H](C)NC(=O)[C@@H](C)N(C)C(=O)[C@@H](Cc2ccccc2)OC(=O)[C@@H](NC(C)=O)[C@@H](C(C)C)OC(=O)[C@H]([C@@H](C)OC)N(C)C1=O)[C@H](O)C(C)C [Compound 11] (Ac-[X1][dPhLac][dNMeA]A[NMeA][X1](Leu(3R-OH,Nα-propionyl))[NMeT](Me); ester 1-C)
3. C=C1C(=O)N[C@@H](C)C(=O)N(C)[C@@H](C)C(=O)N[C@@H]([C@H](OC(=O)[C@@H](NC(=O)CC)[C@H](O)C(C)C)C(C)C)C(=O)N(C)[C@@H]([C@@H](C)OC)C(=O)O[C@H](CSC)[C@H](NC(C)=O)C(=O)O[C@H](Cc2ccccc2)C(=O)N1C [Compound 2] (Ac-[X5][dPhLac][NMeDha]A[NMeA][X1](Leu(3R-OH,Nα-propionyl))[NMeT](Me); ester 1-C)
4. C=C1C(=O)N[C@@H](C)C(=O)N(C)[C@@H](C)C(=O)N[C@@H]([C@H](OC(=O)[C@@H](NC(C)=O)[C@H](O)C(C)C)C(C)C)C(=O)N(C)[C@@H]([C@@H](C)OC)C(=O)O[C@H](C(C)C)[C@H](NC(C)=O)C(=O)O[C@H](Cc2ccccc2)C(=O)N1C [Compound 8] (Ac-[X1][dPhLac][NMeDha]A[NMeA][Leu(3R-O(AcLeu(3R-OH)))][NMeT](Me); ester 1-C)
5. C=C1C(=O)N[C@@H](C)C(=O)N(C)[C@@H](C)C(=O)N[C@@H]([C@H](OC(=O)[C@@H](NC(=O)CC)[C@H](O)C(C)C)C(C)C)C(=O)N(C)[C@@H]([C@@H](C)OC)C(=O)O[C@H](C(C)C)[C@H](NC(=O)CC)C(=O)O[C@H](Cc2ccccc2)C(=O)N1C [Compound 9] (Propionyl-[X1][dPhLac][NMeDha]A[NMeA][X1](Leu(3R-OH,Nα-propionyl))[NMeT](Me); ester 1-C)

1. 1.2
2. 1.8
3. 9.8
4. 1
5. 1.4

Batch lookup, GI50 per entry.
1. C=C1C(=O)N[C@@H](C)C(=O)N(C)[C@@H](C)C(=O)N[C@@H]([C@@H](CSC)OC(=O)[C@@H](NC(=O)CC)[C@H](O)C(C)C)C(=O)N(C)[C@@H]([C@@H](C)OC)C(=O)O[C@H](C(C)C)[C@H](NC(C)=O)C(=O)O[C@H](Cc2ccccc2)C(=O)N1C [Compound 3] (Ac-[X1][dPhLac][NMeDha]A[NMeA][X5](Leu(3R-OH,Nα-propionyl))[NMeT](Me); ester 1-C)
2. C=C1C(=O)N[C@@H](C)C(=O)N(C)[C@@H](C)C(=O)N[C@@H]([C@H](OC(=O)[C@@H](NC(C)=O)[C@H](O)C(C)C)C(C)C)C(=O)N(C)[C@@H]([C@@H](C)OC)C(=O)O[C@H](C)[C@H](NC(C)=O)C(=O)O[C@H](Cc2ccccc2)C(=O)N1C [Compound 13] (Ac-T[dPhLac][NMeDha]A[NMeA][Leu(3R-O(AcLeu(3R-OH)))][NMeT](Me); ester 1-C)

1. 10.4
2. 15.7
